- Test system: Setaria faberi (SETFA)
- protocol-details: Post-emergence herbicidal glasshouse test, percentage damage
- Type: in vivo
- experimental-setup: 250 g/h, evaluated after 13 days
Assign SETFA POST percentage damage (five point scale) to each entry below.

molecule-smiles: CC#Cc1cc(C)c(C2C(=O)CC3(CCN(C(=O)C4=NOCC4)CC3)CC2=O)c(C)c1
endpoint-result: 5 (5=80-100%)
--
molecule-smiles: CC#Cc1cc(C)c(C2=C(OC(=O)OC)CC3(CCN(S(C)(=O)=O)CC3)CC2=O)c(C)c1
endpoint-result: 5 (5=80-100%)
--
molecule-smiles: C=CCOCC(=O)N1CCC2(CC1)CC(=O)C(c1c(C)cc(C#CC)cc1C)C(=O)C2
endpoint-result: 5 (5=80-100%)

QUERY: Fill in the blank: the reported SETFA POST percentage damage (five point scale) of CC#Cc1cc(C)c(C2C(=O)CC3(CCN(C(=O)Cc4cccnn4)CC3)CC2=O)c(C)c1 is ____.
RESULT: 5 (5=80-100%)
